Quick reference: cell viability of the listed items.
# Tested on: ML-2
# method_notes: cell viability (% survival relative to DMSO control, bortezomib = 0%); higher = less cytotoxic
# assay_setup: 1000 nM; 72 h
result_type: cell viability

compound	value
CC(C)Cc1sc(N)nc1-c1ccc(P(=O)(O)O)o1	103%
CCOC(=O)N1c2ccc(C(F)(F)F)cc2[C@@H](N(Cc2cc(C(F)(F)F)cc(C(F)(F)F)c2)C(=O)OC)C[C@H]1CC	80.9%
COc1cc2c(NC3CCN(C)CC3)nc(N3CCCN(C)CC3)nc2cc1OCCCN(C)C	99.6%
CC12CCC(O)CC1CCC1C2CCC2(C)C(C3=CC(=O)OC3)CCC12O (stereo not given)	0.616%
O=C(O)c1cc2sccc2[nH]1 [4H-thieno[3,2-b]pyrrole-5-carboxylic acid]	99.1%

* * *

# System: KU-812
# method_notes: cell viability (% survival relative to DMSO control, bortezomib = 0%); higher = less cytotoxic
# assay_setup: 10 nM; 72 h
Catalogue of cell viability readings, one per entry.

compound	unit_of_measure	cell viability
C1CCC(C(CC2CCCCN2)C2CCCCC2)CC1.O=C(O)/C=C\C(=O)O (configuration not stated)	%	85.1
O=C(O)C(Cl)Cl [Dichloroacetate]	%	90.9
C#Cc1cnc(O)nc1O	%	109
C=CCc1ccc2c(c1O)C(=O)c1ccccc1C2=O	%	89.9
O=C1Nc2ccccc2/C1=C\NCCc1ccc(O)c(O)c1	%	113
CC(C(=O)O)C(=O)O [Methylmalonate]	%	93.7
c1ccc2c(c1)OCC(=C1NCCN1)O2	%	108

* * *

# Tested on: HEL
# method_notes: cell viability (% survival relative to DMSO control, bortezomib = 0%); higher = less cytotoxic
# assay_setup: 10 nM; 72 h
Quick list: cell viability per entry.

compound	cell viability / %
O=C(COc1ccc(C(=O)c2ccccc2)cc1)NC1CCN(Cc2ccccc2)CC1	96.6
CC(/C=C1\SC(=S)N(CC(=O)O)C1=O)=C\c1ccccc1	94.8
CCOC(=O)N1c2ccc(C(F)(F)F)cc2[C@@H](N(Cc2cc(C(F)(F)F)cc(C(F)(F)F)c2)C(=O)OC)C[C@H]1CC	96.9
O=C(O)CCc1ccc(NCc2cccc(Oc3ccccc3)c2)cc1	105
O=C(O)C(Cl)Cl [Dichloroacetate]	102
Cc1ccc(S(=O)(=O)NC2c3ccccc3Oc3ccccc32)cc1	96.9
N[C@](CCCCB(O)O)(CCN1CCCCC1)C(=O)O	96.7
CCOC(=O)[C@H]1O[C@@H]1C(=O)N[C@@H](CC(C)C)C(=O)NCCC(C)C	102
CCOc1ccc(Cc2cc([C@@H]3O[C@H](CO)[C@@H](O)[C@H](O)[C@H]3O)ccc2Cl)cc1	102

* * *

# Test system: MV4-11
# method_notes: cell viability (% survival relative to DMSO control, bortezomib = 0%); higher = less cytotoxic
# assay_setup: 100 nM; 72 h
Entries and their cell viability

query_smiles	cell viability
Cc1noc2c1-c1ccccc1C(c1ccc(Cl)cc1)=N[C@H]2CC(N)=O	57.2%
O=C(O)CCc1ccc(NCc2cccc(Oc3ccccc3)c2)cc1	103%
C[C@]12O[C@H](C[C@]1(O)CO)n1c3ccccc3c3c4c(c5c6ccccc6n2c5c31)CNC4=O	-0.544%
N[C@](CCCCB(O)O)(CCN1CCCCC1)C(=O)O	103%

These measurements were taken from the supplement of paper PMC8671470.
